# Tested on: H1975 cells
# PROTOCOL DESCRIPTION: Cell proliferation and growth inhibition assay (CCK-8) in H1975
# Format: cell-based
# PARTICULARS: Homo sapiens, NCI-H1975, 72 h, treated with test compounds for 72 hrs, CCK-8 viability, read-out: EGFR IC50 in H1975
pIC50: −log10 of the molar value.
EXPERIMENTAL ENDPOINT: pIC50

In the examples that follow, each entry is paired with its recorded pIC50.
{"COMPOUND": "CC(=O)Nc1cc(Nc2ncc(F)c(-c3c[nH]c4c(F)cccc34)n2)ccc1N(C)CCN(C)C", "pIC50": 6.16}
{"COMPOUND": "CC(=O)Nc1cc(Nc2ncc(Cl)c(-c3c[nH]c4ccccc34)n2)cc(F)c1N1CCC(N(C)C)C1 (stereo not shown)", "pIC50": 6.06}
{"COMPOUND": "Cc1cccc2c(-c3nc(Nc4ccc(N5CC[C@H](N(C)C)C5)c(N)c4)ncc3Cl)cn(C)c12", "pIC50": 6.78}

1: COc1cccc2c(-c3nc(Nc4ccc(N5CC[C@@H](N(C)C)C5)c(NC(C)=O)c4)ncc3C(F)(F)F)c[nH]c12
2: Cc1cccc2c(-c3ccnc(Nc4ccc(N(C)CCN(C)C)c(N)c4)n3)c[nH]c12
3: CC(=O)Nc1cc(Nc2ncc(Cl)c(-c3c[nH]c4ccccc34)n2)ccc1N1CCC(N(C)C)C1 (stereo not shown)
4: CC(=O)Nc1cc(Nc2ncc(C(F)(F)F)c(-c3c[nH]c4c(F)cccc34)n2)ccc1OCCN(C)C
Query block: Order each entry by recorded pIC50, climbing from the minimum. Returns: the labels listed in the requested order.
Result block: 2, 3, 1, 4

---

# System: H1975 cells
# PROTOCOL DESCRIPTION: Cell proliferation and growth inhibition assay (CCK-8) in H1975
# Assay type: cell-based
# PARTICULARS: Homo sapiens, NCI-H1975, 72 h, treated with test compounds for 72 hrs, CCK-8 viability, read-out: EGFR IC50 in H1975
# Description: MV-4-11 and H1975 cells were obtained from the American Type Culture Collection and KM12-luc cells were obtained from JCRB Cell Bank. […] Cell proliferation was assessed by CCK-8 assay (Yeasen) per the manufacturer's instructions. […] Absorbance was measured at OD450 using the Beckman DTX880. The data was calculated using GraphPad Prism version 6.01. […]
pIC50: −log10 of the molar value.
EXPERIMENTAL ENDPOINT: pIC50

In the examples that follow, each entry is paired with its recorded pIC50.
{"MOLECULE": "CCC(=O)Nc1cc(Nc2ncc(OC)c(-c3c[nH]c4c(OC)cccc34)n2)ccc1N(C)CCN(C)C [Compound 538]", "pIC50": 5.43}
{"MOLECULE": "COc1cnc(Nc2ccc(OCCN(C)C)c(NC(C)=O)c2)nc1-c1c[nH]c2c(C)cccc12 [Compound 284]", "pIC50": 5.99}

A: CC(=O)Nc1cc(Nc2ncc(Cl)c(-c3c[nH]c4ccccc34)n2)ccc1N(C)C(=O)CCN(C)C [Compound 446]
B: CCC(=O)Nc1cc(Nc2nc(-c3c[nH]c4c(OC)cccc34)c3cc[nH]c3n2)ccc1N(C)CCN(C)C [Compound 518]
Query block: Between A and B , whose recorded pIC50 is greater? In your reply, give the label of the chosen option.
Result block: B
(B: 6.39, A: 6.18)

Attribution: patent US20250136576A1
